For each record, write down the corresponding CTG-3D luminescence at 96 h.
System: HCI-002 (organoid from a triple-negative breast cancer xenograft)
assay details: CTG-3D luminescence at 96 h relative to day-0 seeding control (ratio to day 0); higher = more growth / less cytotoxicity; PDxO 3D drug screen, 96 h, CTG-3D normalised to day-0 seeding control.
condition details: 0.00025 µM; days in culture: 227
Answers are plain numbers.

Field: example entries. Status: answers known.
INSERT INTO measurements (molecule, observed_value) VALUES
  ('C[C@]12CC[C@@H]3c4ccc(O)cc4C[C@@H](CCCCCCCCC[S+]([O-])CCCC(F)(F)C(F)(F)F)[C@H]3[C@@H]1CC[C@@H]2O (stereo not given in full) [fulvestrant]', 4.65),
  ('O=C(O)C1(C(=O)O)CCC1.[NH2-].[NH2-].[Pt+2] [carboplatin]', 5.72),
  ('CC(=O)O[C@H]1C(=O)[C@@]2(C)[C@H]([C@H](OC(=O)c3ccccc3)[C@]3(O)C[C@H](OC(=O)[C@H](O)[C@@H](NC(=O)c4ccccc4)c4ccccc4)C(C)=C1C3(C)C)[C@]1(OC(C)=O)CO[C@@H]1C[C@@H]2O [paclitaxel]', 5.22),
  ('NC1(C(=O)N[C@@H](CCO)c2ccc(Cl)cc2)CCN(c2nc[nH]c3nccc2-3)CC1 [capivasertib]', 6.01);

Proceeding to the next molecule to report its CTG-3D luminescence at 96 h.
Exercise: Lab note: HCI-002 assay, enter CTG-3D luminescence at 96 h for C[C@H](NC(=O)CCC(F)(F)F)C(=O)N[C@@H]1C(=O)N(CCO)c2ncccc2-c2ccccc21 [crenigacestat] here
Key: 5.77

---

For each record, write down the corresponding CTG-3D luminescence at 96 h.
Test system: HCI-010 (organoid from a breast cancer xenograft)
assay details: CTG-3D luminescence at 96 h relative to day-0 seeding control (ratio to day 0); higher = more growth / less cytotoxicity; PDxO 3D drug screen (set 2), 96 h, CTG-3D normalised to day-0 seeding control.
condition details: 10 µM; days in culture: 79
Give bare numbers.

INSERT INTO measurements (molecule, experimental_target, attribute_measured, observed_value) VALUES
  ('COc1cccc2c1C(=O)c1c(O)c3c(c(O)c1C2=O)C[C@@](O)(C(=O)CO)C[C@@H]3O[C@H]1C[C@H](N)[C@@H](O)[C@H](C)O1 [epirubicin]', 'HCI-010', 'CTG-3D luminescence at 96 h', 0.0313),
  ('CS(=O)(=O)CCNCc1ccc(-c2ccc3ncnc(Nc4ccc(OCc5cccc(F)c5)c(Cl)c4)c3c2)o1 [lapatinib]', 'HCI-010', 'CTG-3D luminescence at 96 h', 0.69),
  ('CC(C)n1nc(-c2ccc3oc(N)nc3c2)c2c(N)ncnc21 [sapanisertib]', 'HCI-010', 'CTG-3D luminescence at 96 h', 0.119),
  ('CCOc1ccn(-c2ccc(F)cc2)c(=O)c1C(=O)Nc1ccc(Oc2ccnc(N)c2Cl)c(F)c1 [ASLAN002]', 'HCI-010', 'CTG-3D luminescence at 96 h', 1.55),
  ('O=C(c1cc(Cc2n[nH]c(=O)c3ccccc23)ccc1F)N1CCN(C(=O)C2CC2)CC1 [olaparib]', 'HCI-010', 'CTG-3D luminescence at 96 h', 1.43);

Proceeding to the next molecule to report its CTG-3D luminescence at 96 h.
Exercise: Consider the molecule C[C@@H](Nc1cc(F)cc(F)c1)c1cc(C(=O)N(C)C)cc2c(=O)cc(N3CCOCC3)oc12 [AZD-8186] . State its measured CTG-3D luminescence at 96 h.
Key: 1.1

---

For each record, write down the corresponding CTG-3D luminescence at 96 h.
Test system: HCI-019 (organoid from a triple-negative breast cancer xenograft)
assay details: CTG-3D luminescence at 96 h relative to day-0 seeding control (ratio to day 0); higher = more growth / less cytotoxicity; PDxO 3D drug screen, 96 h, CTG-3D normalised to day-0 seeding control.
condition details: 0.005 µM; days in culture: 152

Field: example entries. Status: answers known.
INSERT INTO measurements (structure_smiles_string, attribute_measured, observed_value) VALUES
  ('C[C@@H]1COCCN1c1cc(C2([S@](C)(=N)=O)CC2)nc(-c2cc[nH]c3nccc2-3)n1', 'CTG-3D luminescence at 96 h', 2.34),
  ('CC(C)n1nc(-c2ccc3oc(N)nc3c2)c2c(N)ncnc21', 'CTG-3D luminescence at 96 h', 2.71),
  ('Cc1cc(Nc2ncc(Cl)c(Nc3ccccc3S(=O)(=O)C(C)C)n2)c(OC(C)C)cc1C1CCNCC1', 'CTG-3D luminescence at 96 h', 1.79),
  ('Cc1nc(-c2cn3c(n2)-c2ccc(-c4cnn(C(C)(C)C(N)=O)c4)cc2OCC3)n(C(C)C)n1', 'CTG-3D luminescence at 96 h', 2.02);

Proceeding to the next compound to report its CTG-3D luminescence at 96 h.
Exercise: Lab note: HCI-019 assay, enter CTG-3D luminescence at 96 h for `NC(=O)c1cccc2cn(-c3ccc([C@@H]4CCCNC4)cc3)nc12` here
Key: 1.69

---

For each record, write down the corresponding CTG-3D luminescence at 96 h.
Test system: HCI-010
assay details: CTG-3D luminescence at 96 h relative to day-0 seeding control (ratio to day 0); higher = more growth / less cytotoxicity; PDxO 3D drug screen, 96 h, CTG-3D normalised to day-0 seeding control.
condition details: 0.1 µM; days in culture: 52
One number for each entry.

Field: example entries. Status: answers known.
INSERT INTO results (structure_smiles_string, observed_value) VALUES
  ('C/C=C1\NC(=O)[C@H]2CSSCC/C=C/[C@H](CC(=O)N[C@H](C(C)C)C(=O)N2)OC(=O)[C@H](C(C)C)NC1=O', 0.189),
  ('Cc1cc(Nc2ncc(Cl)c(Nc3ccccc3S(=O)(=O)C(C)C)n2)c(OC(C)C)cc1C1CCNCC1', 2.54),
  ('C[C@H](NC(=O)CCC(F)(F)F)C(=O)N[C@@H]1C(=O)N(CCO)c2ncccc2-c2ccccc21', 2.54);

Exercise: Lab note: HCI-010 assay, enter CTG-3D luminescence at 96 h for `CCN1CCN(Cc2ccc(Nc3ncc(F)c(-c4cc(F)c5nc(C)n(C(C)C)c5c4)n3)nc2)CC1` here
Key: 2.47

---

Test system: MDA-MB-231
assay details: CTG-3D luminescence at 96 h relative to day-0 seeding control (ratio to day 0); higher = more growth / less cytotoxicity; PDxO 3D drug screen, 96 h, CTG-3D normalised to day-0 seeding control.
condition details: 625 fM
For each record, write down the corresponding CTG-3D luminescence at 96 h.
One number for each entry.

INSERT INTO measurements (structure_smiles_string, observed_value) VALUES
  ('CC(C)n1nc(-c2ccc3oc(N)nc3c2)c2c(N)ncnc21', 4.61),
  ('CC(=O)O[C@H]1C(=O)[C@@]2(C)[C@H]([C@H](OC(=O)c3ccccc3)[C@]3(O)C[C@H](OC(=O)[C@H](O)[C@@H](NC(=O)c4ccccc4)c4ccccc4)C(C)=C1C3(C)C)[C@]1(OC(C)=O)CO[C@@H]1C[C@@H]2O', 3.85);

Go through the list and state CTG-3D luminescence at 96 h for each entry.
1. CCN(c1cc(C#CCN2CCOCC2)cc(C(=O)NCc2c(C)cc(C)[nH]c2=O)c1C)[C@H]1CC[C@H](N(C)CCOC)CC1
2. CCc1c2c(nc3ccc(O)cc13)-c1cc3c(c(=O)n1C2)COC(=O)[C@]3(O)CC

Key:
[4.51, 4.4]

---

System: HCI-017.E2 (organoid from an ER-positive breast cancer xenograft)
assay details: CTG-3D luminescence at 96 h relative to day-0 seeding control (ratio to day 0); higher = more growth / less cytotoxicity; PDxO 3D drug screen, 96 h, CTG-3D normalised to day-0 seeding control.
condition details: 10 µM; days in culture: 85
For each record, write down the corresponding CTG-3D luminescence at 96 h.
Answers are plain numbers.

INSERT INTO assay_data (structure_smiles_string, observed_value) VALUES
  ('O=C(O)C1(C(=O)O)CCC1.[NH2-].[NH2-].[Pt+2]', 2.18),
  ('CC(=O)O[C@H]1C(=O)[C@@]2(C)[C@H]([C@H](OC(=O)c3ccccc3)[C@]3(O)C[C@H](OC(=O)[C@H](O)[C@@H](NC(=O)c4ccccc4)c4ccccc4)C(C)=C1C3(C)C)[C@]1(OC(C)=O)CO[C@@H]1C[C@@H]2O', 1.04),
  ('C/C=C1\NC(=O)[C@H]2CSSCC/C=C/[C@H](CC(=O)N[C@H](C(C)C)C(=O)N2)OC(=O)[C@H](C(C)C)NC1=O', 0.0715);

Proceeding to the next compound to report its CTG-3D luminescence at 96 h.
Exercise: Consider the compound `NC(=O)c1cccc2cn(-c3ccc([C@@H]4CCCNC4)cc3)nc12` . State its measured CTG-3D luminescence at 96 h.
Key: 1.81
